Documented pIC50 across a set of compounds
Biological target: TrkA^G667C (Kinase domain) kinase (Homo sapiens (Human), UniProt P04629, G667C)
Sequence (P04629 510-781 G667C): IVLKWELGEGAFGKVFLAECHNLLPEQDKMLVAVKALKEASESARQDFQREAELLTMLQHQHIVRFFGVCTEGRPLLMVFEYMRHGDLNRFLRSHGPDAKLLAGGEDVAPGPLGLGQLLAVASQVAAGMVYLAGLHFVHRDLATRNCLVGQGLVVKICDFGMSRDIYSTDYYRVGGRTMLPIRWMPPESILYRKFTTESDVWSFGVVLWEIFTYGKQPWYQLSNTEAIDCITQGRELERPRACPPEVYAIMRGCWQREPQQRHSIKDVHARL
Experiment: HTRF assay for inhibitory activity (IC50) against TrkA^G667C kinase
Settings: mutant TrkA kinase, ATP 15 μM, kinase 0.5 nM
pIC50: −log10 of the molar value.

Example entries begin here.
Nc1nn2ccc(N3CCC[C@@H]3c3cc(F)ccc3F)nc2c1C(=O)N[C@H]1CC[C@H](O)CC1 | > 9.00
CNC(=O)c1c(N)nn2ccc(N3C[C@@H](F)C[C@@H]3c3cc(F)ccc3F)nc12 | > 8.00

Recorded pIC50 for NC(=O)c1c(N)nn2ccc(N3C[C@@H](F)C[C@@H]3c3cc(F)ccc3F)nc12 with TrkA^G667C (Kinase domain) kinase (Homo sapiens (Human), UniProt P04629, G667C), please?
> 8.00

Cited source for all entries: patent US10829492B2
